Values were extracted from paper PMC11435058.

system: SK-MEL-2; assay: NCI-60 anticancer screen (SRB; single dose and five doses); details: Homo sapiens, SK-MEL-2, read-out: LC50
Doc: threshold 50 µM (exclusive). Items with CC50 beneath it return y; others return n.

Please review the entries below; each comes with its answer.
1) Cc1[nH]c(=S)sc1C(=O)/C=C/c1cccc(Cl)c1    n
2) Cc1[nH]c(=S)sc1C(=O)/C=C/c1cccc([N+](=O)[O-])c1    n

Now for another entry.
In plain terms, does "Cc1[nH]c(=S)sc1C(=O)/C=C/c1ccc(Br)cc1" come in under 50 µM for CC50?
y

====

readout.name: melting point

Answered examples (3):
1) Cc1ccc(/C=C/C(=O)c2sc(=S)[nH]c2C)cc1    241 to 243 °C
2) Cc1[nH]c(=S)sc1C(=O)/C=C/c1ccc(N(C)C)cc1    249 to 251 °C
3) COc1ccc(/C=C/C(=O)c2sc(=S)[nH]c2C)cc1OC    245 to 247 °C

Find the recorded melting point belonging to "Cc1[nH]c(=S)sc1C(=O)/C=C/c1ccccc1" and report it.
245 to 247 °C

And for "Cc1[nH]c(=S)sc1C(=O)/C=C/c1ccccc1Cl" ?
240 to 242 °C

Now try "Cc1[nH]c(=S)sc1C(=O)/C=C/c1cccc(F)c1" .
234 to 236 °C
